Tested on: NIH3T3
Experiment: Cytotoxicity against mouse NIH/3T3 cells after 24 hrs by MTT assay
Type: cell-based
Conditions: NIH3T3, 24 h
endpoint-label: IC50 (µg/mL)
Unit µg/mL implied. Number only.

The examples below pair each entry with its known result.
compound-structure	value-units	endpoint-result
Oc1ccc(CCc2nnc3n2N=C(c2ccccc2)CS3)cc1	µg/mL	31.6
Oc1ccc(CCc2nnc3n2N=C(c2ccc(F)cc2)CS3)cc1	µg/mL	367
Cc1ccc(C2=Nn3c(CCc4ccc(O)cc4)nnc3SC2)cc1	µg/mL	400
Clc1ccc(C2=Nn3c(CCC4CCCCC4)nnc3SC2)cc1	µg/mL	103
Oc1ccc(CCc2nnc3n2N=C(c2ccc(Cl)cc2)CS3)cc1	µg/mL	86.7
Fc1ccc(C2=Nn3c(CCC4CCCCC4)nnc3SC2)cc1	µg/mL	106
Cc1ccc(C2=Nn3c(CCC4CCCCC4)nnc3SC2)cc1	µg/mL	198
O=[N+]([O-])c1ccc(C2=Nn3c(CCc4ccc(O)cc4)nnc3SC2)cc1	µg/mL	307

stdin: Recorded IC50 for c1ccc(C2=Nn3c(CCC4CCCCC4)nnc3SC2)cc1 , please?
stdout: 433

stdin: I'd like to know its IC50. The compound in question is O=[N+]([O-])c1ccc(C2=Nn3c(CCC4CCCCC4)nnc3SC2)cc1
stdout: 210
